# assaySystem: UniProt:Q03111
# Sequence (Q03111 whole entry): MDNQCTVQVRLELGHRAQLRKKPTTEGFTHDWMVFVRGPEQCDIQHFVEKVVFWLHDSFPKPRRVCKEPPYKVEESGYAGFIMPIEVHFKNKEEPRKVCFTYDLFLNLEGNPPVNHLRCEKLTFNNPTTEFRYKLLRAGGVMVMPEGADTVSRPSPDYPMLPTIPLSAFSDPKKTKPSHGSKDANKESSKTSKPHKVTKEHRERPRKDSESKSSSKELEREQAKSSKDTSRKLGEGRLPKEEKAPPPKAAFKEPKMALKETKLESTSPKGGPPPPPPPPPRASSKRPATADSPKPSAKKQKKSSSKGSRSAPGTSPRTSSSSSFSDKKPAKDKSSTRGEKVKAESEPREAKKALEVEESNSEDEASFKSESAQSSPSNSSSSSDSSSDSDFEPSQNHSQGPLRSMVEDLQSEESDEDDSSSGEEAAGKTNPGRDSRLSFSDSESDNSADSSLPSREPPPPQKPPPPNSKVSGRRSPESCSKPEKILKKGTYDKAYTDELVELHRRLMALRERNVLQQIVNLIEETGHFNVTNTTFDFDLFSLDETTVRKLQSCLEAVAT
# protocol: Inhibition of C-terminal 6xHis-tagged ENL YEATS domain (1 to 148 residues) (unknown origin) expressed in Escherichia coli BL21(DE3) cells using biotin-H3K27ace as substrate incubated for 45 mins by alpha screen assay
Lab note: compare IC50 with 40 nM, writing Criterion met if less and Criterion not met if equal or more.

In: Decide: IC50 of C[C@H]1CCCN1Cc1nc2cc(NC(=O)c3ccc4nn(CCN)cc4c3)ccc2[nH]1 strictly below 40 nM?
Out: Criterion met

In: Decide: IC50 of CCCCn1ncc2cc(C(=O)Nc3ccc4[nH]c(CN5CCC[C@@H]5C)nc4c3)ccc21 strictly below 40 nM?
Out: Criterion met

In: Decide: IC50 of C[C@H]1CCCN1Cc1nc2cc(NC(=O)c3ccc4c5ccccc5c(=O)n(C)c4c3)ccc2[nH]1 strictly below 40 nM?
Out: Criterion met

In: Decide: IC50 of C[C@H]1CCCN1Cc1nc2cc(NC(=O)c3ccc4nn(C5CCCC5)cc4c3)ccc2[nH]1 strictly below 40 nM?
Out: Criterion not met

In: Decide: IC50 of C[C@H]1CCCN1Cc1nc2cc(NC(=O)c3ccc4c(cnn4CCN)c3)ccc2[nH]1 strictly below 40 nM?
Out: Criterion met

In: Decide: IC50 of Cc1noc2cc(C(=O)Nc3ccc4[nH]c(CN5CCC[C@@H]5C)nc4c3)ccc12 strictly below 40 nM?
Out: Criterion met

In: Decide: IC50 of C[C@H]1CCCN1Cc1nc2cc(NC(=O)c3ccc4c(cnn4CCN4CCOCC4)c3)ccc2[nH]1 strictly below 40 nM?
Out: Criterion met

In: Decide: IC50 of C[C@H]1CCCN1Cc1nc2cc(NC(=O)c3ccc4nn(C)cc4c3)ccc2[nH]1 strictly below 40 nM?
Out: Criterion not met

In: Decide: IC50 of Cc1cccc2c(=O)n(C)c3ccc(C(=O)Nc4ccc5[nH]c(CN6CCC[C@@H]6C)nc5c4)cc3c12 strictly below 40 nM?
Out: Criterion not met

In: Decide: IC50 of C[C@H]1CCCN1Cc1nc2cc(NC(=O)c3ccc4c(c3)c3ccccc3c(=O)n4C)ccc2[nH]1 strictly below 40 nM?
Out: Criterion met

In: Decide: IC50 of C[C@H]1CCCN1Cc1nc2cc(NC(=O)N3C(CO)C(O)C(O)C3CO)ccc2[nH]1 (stereo partly drawn) strictly below 40 nM?
Out: Criterion met

In: Decide: IC50 of C[C@H]1CCCN1Cc1nc2cc(NC(=O)c3ccc4c(c3)c3cc(F)ccc3c(=O)n4C)ccc2[nH]1 strictly below 40 nM?
Out: Criterion met

In: Decide: IC50 of CCn1cc2cc(C(=O)Nc3ccc4[nH]c(CN5CCC[C@@H]5C)nc4c3)ccc2n1 strictly below 40 nM?
Out: Criterion met

In: Decide: IC50 of CCCCn1cc2cc(C(=O)Nc3ccc4[nH]c(CN5CCC[C@@H]5C)nc4c3)ccc2n1 strictly below 40 nM?
Out: Criterion met

In: Decide: IC50 of C[C@H]1CCCN1Cc1nc2cc(NC(=O)c3ccc4c(cnn4CCN4CC(O)C(O)C4C(O)CO)c3)ccc2[nH]1 (stereo partly drawn) strictly below 40 nM?
Out: Criterion met

In: Decide: IC50 of C[C@H]1CCCN1Cc1nc2cc(NC(=O)c3ccc4c(cnn4CCNC(=O)c4ccccc4)c3)ccc2[nH]1 strictly below 40 nM?
Out: Criterion met

In: Decide: IC50 of C[C@H]1CCCN1Cc1nc2cc(NC(=O)c3ccc4nn(CCNC(=O)OC(C)(C)C)cc4c3)ccc2[nH]1 strictly below 40 nM?
Out: Criterion met

In: Decide: IC50 of C[C@H]1CCCN1Cc1nc2cc(NC(=O)c3ccc4c(cnn4CCNC(=O)Nc4cccc(F)c4)c3)ccc2[nH]1 strictly below 40 nM?
Out: Criterion not met
